// reported melting point for each item listed
Structures can show the parent of a compound that is named as a salt.

Consider the following illustrative entries.
>  <compound>
Cc1ccc2c3c(ccc2n1)OC[C@H](CN1CC(Cc2cn(C)c4ccc(F)cc24)C1)O3 (as salt: oxalate)

>  <melting point>
193 to 195 °C

$$$$
>  <compound>
CCc1ccc2c3c(ccc2n1)OC[C@H](CN1CCC(Cn2ccc4ccc(F)cc42)CC1)O3 (as salt: hydrochloride)

>  <melting point>
> 250 °C

$$$$
>  <compound>
Cc1ccc2c3c(ccc2n1)OCC(CN1CCCC(Cc2c[nH]c4cc(F)ccc24)C1)O3 (stereo not shown) (as salt: salt)

>  <melting point>
50 °C (dec.)

$$$$
>  <compound>
Cc1ccc2c3c(ccc2n1)OC[C@H](CN1CC(CCn2ccc4ccc(C#N)cc42)C1)O3 (as salt: hydrochloride)

>  <melting point>
144 °C (dec.)

$$$$
>  <compound>
Cc1ccc2c3c(ccc2n1)OC[C@H](CN1CCC(Cn2ccc4ccc(F)cc42)CC1)O3 (as salt: fumarate)

>  <melting point>
140 to 142 °C

$$$$
>  <compound>
Cc1ccc2c3c(ccc2n1)OCC(CN1CC(CCn2ccc4ccc(F)cc42)C1)O3 (stereo not shown) (as salt: hydrochloride)

>  <melting point>
115 °C (dec.)

$$$$

Now for the compound whose melting point we want.
Query: Consider the compound shown here: Cc1ccc2c3c(ccc2n1)OCC(CN1CC(Cn2ccc4ccc(F)cc42)C1)O3 (stereo not shown) (as salt: salt) What is its recorded melting point?
Response: 138 °C (dec.)

====

Attribute: Emax
molecular target: cloned human 5-HT1A receptors (Homo sapiens, UniProt P08908); construct: expressed in transfected cells; assay: 35S-GTPγS binding assay, antagonist activity at 5-HT1A receptors; format: biochemical; conditions: value in brackets; maximum inhibitory effect; read-out: 5-HT1A Receptor Affinity IC50 (nM) (Imax): Imax
Provide the reading as a plain figure in %.

>  <molecule>
Cc1ccc2c3c(ccc2n1)OCC(CN1CC(CCn2ccc4ccc(F)cc42)C1)O3 (stereo not shown)

>  <assayed_target>
cloned human 5-HT1A receptors (Homo sapiens, UniProt P08908)

>  <unit_annotation>
%

>  <measured_value>
80

$$$$
>  <molecule>
Cc1ccc2c3c(ccc2n1)OC[C@H](CN1CC(Cc2cn(C)c4ccc(F)cc24)C1)O3

>  <assayed_target>
cloned human 5-HT1A receptors (Homo sapiens, UniProt P08908)

>  <unit_annotation>
%

>  <measured_value>
96.3

$$$$

Query: I am curious: what Emax value has been reported for Cc1ccc2c3c(ccc2n1)OCC(CN1CCCC(Cc2c[nH]c4ccc(F)cc24)C1)O3 (stereo not shown) ?
Response: 100

Query: Also, `CCc1ccc2c3c(ccc2n1)OC[C@H](CN1CCC(Cn2ccc4ccc(F)cc42)CC1)O3` please.
Response: 81.5

====

Target: cloned human 5-HT1A receptors (Homo sapiens, UniProt P08908)
Construct: expressed in transfected cells
Sequence (P08908 1-422): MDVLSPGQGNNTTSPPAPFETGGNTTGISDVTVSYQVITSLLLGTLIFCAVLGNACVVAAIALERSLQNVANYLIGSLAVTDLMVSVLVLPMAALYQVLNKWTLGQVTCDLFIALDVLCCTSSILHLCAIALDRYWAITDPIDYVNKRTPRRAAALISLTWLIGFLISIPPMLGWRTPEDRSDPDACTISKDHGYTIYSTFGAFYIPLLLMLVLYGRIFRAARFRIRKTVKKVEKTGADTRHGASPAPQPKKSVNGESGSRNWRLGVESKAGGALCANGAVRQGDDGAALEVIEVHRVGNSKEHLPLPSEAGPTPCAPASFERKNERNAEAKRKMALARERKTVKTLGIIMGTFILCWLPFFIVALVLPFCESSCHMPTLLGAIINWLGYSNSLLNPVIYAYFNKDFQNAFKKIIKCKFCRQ
Assay: 35S-GTPγS binding assay, antagonist activity at 5-HT1A receptors
Type: biochemical
Settings: value in brackets; maximum inhibitory effect; read-out: 5-HT1A Receptor Affinity IC50 (nM) (Imax): Imax
// reported Emax per item
Just the number please, in %, no unit attached.

Reference set (5 entries):
>  <compound>
Cc1ccc2c3c(ccc2n1)OCC(CN1CCCC(Cc2c[nH]c4cc(F)ccc24)C1)O3 (stereo not drawn) [Example 3]

>  <assayed_target>
cloned human 5-HT1A receptors (Homo sapiens, UniProt P08908)

>  <Emax / %>
100

$$$$
>  <compound>
Cc1ccc2c3c(ccc2n1)OCC(CN1CC(Cc2c[nH]c4ccc(F)cc24)C1)O3 (stereo not drawn) [Example 1]

>  <assayed_target>
cloned human 5-HT1A receptors (Homo sapiens, UniProt P08908)

>  <Emax / %>
73.7

$$$$
>  <compound>
Cc1ccc2c3c(ccc2n1)OC[C@H](CN1CCC(Cn2ccc4ccc(C#N)cc42)CC1)O3 [Example 8]

>  <assayed_target>
cloned human 5-HT1A receptors (Homo sapiens, UniProt P08908)

>  <Emax / %>
100

$$$$
>  <compound>
Cc1ccc2c3c(ccc2n1)OC[C@H](CN1CCC(Cn2ccc4ccc(F)cc42)CC1)O3 [Example 6]

>  <assayed_target>
cloned human 5-HT1A receptors (Homo sapiens, UniProt P08908)

>  <Emax / %>
85.5

$$$$
>  <compound>
Cc1ccc2[nH]cc(CC3CN(C[C@H]4COc5ccc6nc(C)ccc6c5O4)C3)c2c1 [Example 12]

>  <assayed_target>
cloned human 5-HT1A receptors (Homo sapiens, UniProt P08908)

>  <Emax / %>
89.5

$$$$

Proceed to the following item.
Query: Using the record for Cc1ccc2c3c(ccc2n1)OC[C@H](CN1CC(CCn2ccc4ccc(C#N)cc42)C1)O3 [Example 11] , report its Emax.
Response: 85

src = patent US7135479B2
